# System: C. elegans
# Assay: Efficacy against nematodes (C. elegans motility rating)
# Parameters: key: 0: no effect; 7: reduced movement in 24 h; 8: dead in 24 h; 9: dead in 4 h
# Experimental setup: dose 100 ppm, observations at 4 h and 24 h postimmersion
Measured endpoint: Rating
Just the number, please, no unit after it.

Query :: Report the value of Rating obtained on C. elegans for O=C1OC(=Cc2cnccc2Br)C(O)=C1c1ccc(OC(F)(F)F)cc1 (mixture of isomers) .
Result :: 9

Query :: Report Rating from C. elegans testing of N#Cc1ccc(C2=C(O)C(=Cc3ccc(OC(F)F)cc3)OC2=O)cc1 (mixture of isomers)
Result :: 9

Query :: Enter measured Rating, system C. elegans, for the compound shown: O=C1OC(=Cc2ccc(F)cc2)C(O)=C1c1ccc(OC(F)(F)F)cc1 (mixture of isomers)
Result :: 9

====

# Target or test system: E. coli UDP-N-acetylglucosamine enolpyruvoyl transferase, MurA (Escherichia coli)
# Sequence (P0A749 whole entry): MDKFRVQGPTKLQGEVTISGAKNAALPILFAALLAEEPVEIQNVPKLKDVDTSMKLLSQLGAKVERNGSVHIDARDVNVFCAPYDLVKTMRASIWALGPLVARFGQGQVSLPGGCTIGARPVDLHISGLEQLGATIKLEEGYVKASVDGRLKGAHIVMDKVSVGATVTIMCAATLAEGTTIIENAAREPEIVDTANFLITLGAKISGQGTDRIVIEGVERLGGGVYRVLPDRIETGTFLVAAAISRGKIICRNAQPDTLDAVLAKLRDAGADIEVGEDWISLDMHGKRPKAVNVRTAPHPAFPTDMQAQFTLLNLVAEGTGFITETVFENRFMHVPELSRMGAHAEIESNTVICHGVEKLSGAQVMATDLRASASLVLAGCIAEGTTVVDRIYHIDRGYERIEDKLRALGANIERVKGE
# Assay: biochemical
# Experimental setup: (E) E. coli enzyme
Measured endpoint: MurA IC50

Query :: Answer with reported MurA IC50 of O=C1O/C(=C\c2cccc(-c3cccc(Cl)c3)c2)C(O)=C1c1cccc(Cl)c1
Result :: 5 (E) μg/mL

Query :: Hello, please tell me recorded MurA IC50 for this one: O=C1O/C(=C\c2cccc(C(F)(F)F)c2)C(O)=C1c1ccc2ccccc2c1
Result :: 20 (E) μg/mL

Query :: Read off the recorded MurA IC50 for O=C1O/C(=C\c2cc(C(F)(F)F)ccc2F)C(O)=C1c1ccc(-c2ccccc2)c(F)c1
Result :: 1 (E) μg/mL

Query :: Report MurA IC50, nothing else, for this compound: O=C1O/C(=C\c2cccc(C(F)(F)F)c2Cl)C(O)=C1c1ccc(-c2ccccc2)c(F)c1
Result :: 1 (E) μg/mL

Query :: Specify measured MurA IC50 for O=C1OC(=Cc2ccc(-c3ccccc3)cc2)C(O)=C1c1cccc(C(F)(F)F)c1 (mixture of isomers) .
Result :: 1 (E) μg/mL

Query :: Kindly indicate its recorded MurA IC50. Item: O=C1O/C(=C\c2ccc(-c3ccccc3)cc2)C(O)=C1c1cccc2ccccc12
Result :: 16 (E) μg/mL

Query :: Consider the compound O=C1O/C(=C\c2ccc(-c3cccc(C(F)(F)F)c3)cc2)C(O)=C1c1cccc(C(F)(F)F)c1 . State its measured MurA IC50.
Result :: >25 (E) μg/mL

Query :: Give MurA IC50 for the following compound: Cc1ccc(C=C2OC(=O)C(c3ccc(Cl)cc3)=C2O)s1 (mixture of isomers) [Example 13]
Result :: 0.5 (E) μg/mL

====

# Target or test system: S. aureus Uridine-diphosphate-N-acetylmuramoyl-L-alanine: D-glutamate liease, MurD (Staphylococcus aureus, UniProt Q2FZ92)
# Sequence (Q2FZ92 1-449): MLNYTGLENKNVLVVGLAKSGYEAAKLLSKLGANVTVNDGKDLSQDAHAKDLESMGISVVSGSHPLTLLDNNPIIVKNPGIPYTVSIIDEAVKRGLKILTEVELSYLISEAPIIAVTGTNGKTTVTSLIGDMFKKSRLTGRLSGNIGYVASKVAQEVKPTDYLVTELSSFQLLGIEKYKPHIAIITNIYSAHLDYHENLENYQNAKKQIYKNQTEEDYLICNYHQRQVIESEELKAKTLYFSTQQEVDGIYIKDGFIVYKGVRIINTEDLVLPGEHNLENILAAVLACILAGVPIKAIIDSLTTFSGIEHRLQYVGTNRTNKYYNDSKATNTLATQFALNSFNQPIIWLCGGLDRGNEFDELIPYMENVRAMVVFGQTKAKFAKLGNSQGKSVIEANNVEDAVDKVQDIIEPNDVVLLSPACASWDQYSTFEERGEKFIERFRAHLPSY
Measured endpoint: pIC50
The scale used: pIC50 is minus the common logarithm of the concentration in molar units.

Query :: Report pIC50 for COc1cc(/C=C2\OC(=O)C(c3cc(Cl)cc(Cl)c3)=C2O)ccc1-c1ccccc1Cl [Example 21]
Result :: 4.77

Query :: Provide only the value of recorded pIC50 for COc1cc(/C=C2\OC(=O)C(c3cccc(Cl)c3)=C2O)ccc1-c1ccccc1C(F)(F)F [Example 32]
Result :: 4.72

Query :: Report measured pIC50; entry is Cc1ccccc1-c1ccc(/C=C2\OC(=O)C(c3cc(Cl)cc(Cl)c3)=C2O)cc1C [Example 29]
Result :: 4.41

Query :: Give a short answer stating reported pIC50 for O=C1O/C(=C\c2cccc(-c3cc(Cl)cc(Cl)c3)c2)C(O)=C1c1cc(Cl)cc(Cl)c1 [Example 136] .
Result :: 4.68

Query :: Tell me measured pIC50 for Cc1ccccc1C1=C(O)/C(=C/c2ccc(-c3ccccc3C)cc2)OC1=O [Example 60] please.
Result :: 4.22

Query :: Consider the compound COc1cc(/C=C2\OC(=O)C(c3cccc(Cl)c3)=C2O)ccc1-c1ccccc1C [Example 22] and give its recorded pIC50.
Result :: 4.39

Query :: Return pIC50 (reported value) for this compound: CC(=O)c1ccccc1-c1ccc(/C=C2\OC(=O)C(c3cc(Cl)cc(Cl)c3)=C2O)cc1C [Example 40]
Result :: 4.82
